- Target: human MC4-R (Homo sapiens, UniProt P32245)
- Construct: expressed in transfected cells; host or cells: HEK293 T-REx (tetracycline-regulated, Invitrogen); cell line from Palatin Technologies with license from the University of Michigan
- Sequence (P32245 whole entry): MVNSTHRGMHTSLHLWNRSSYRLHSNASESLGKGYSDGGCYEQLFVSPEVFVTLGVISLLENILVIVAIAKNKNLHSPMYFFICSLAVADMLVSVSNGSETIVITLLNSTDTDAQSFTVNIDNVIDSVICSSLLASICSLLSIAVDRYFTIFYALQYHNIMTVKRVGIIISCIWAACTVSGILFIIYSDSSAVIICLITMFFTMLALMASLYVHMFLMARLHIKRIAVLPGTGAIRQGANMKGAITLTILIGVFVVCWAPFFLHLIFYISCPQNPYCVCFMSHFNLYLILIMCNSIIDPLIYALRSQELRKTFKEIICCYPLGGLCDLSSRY
- Assay Remarks: cAMP functional assay in HEK-293 T-REx cells expressing human MC4-R, induced with doxycycline 0.1 ng/mL (low density)
- Type: cell-based
- Reported Conditions: human MC4-R cAMP assay, doxycycline 0.1 ng/mL; averages of all comparable assays; read-out: Ec50
pEC50: −log10 of the molar value. Bridge positions count the residues as written; N and C are the ends. Square brackets hold non-standard residues; d marks the D form. Peptide text beside a SMILES is read from it. Orn = NCCC[C@H](N)C(=O)O
Cut-off 9 on pEC50, inclusive. At or above means true (1); below means false (0).

Some solved entries appear below for comparison.
>>> classification("CC(=O)N[C@H]1CCC(=O)NCCC[C@@H](C(N)=O)NC(=O)[C@H](Cc2c[nH]c3ccccc23)NC(=O)[C@H](CCCNC(=N)N)NC(=O)[C@@H](Cc2ccccc2)NC(=O)[C@H](CCC(N)=O)NC1=O [No. 21, Ac-cyclo(Glu-Gln-D-Phe-Arg-Trp-Orn)-NH2] (Ac-EQ[dF]RW[Orn]-NH2; lactam 1-6)")
"false (0)"
>>> classification("CC(=O)N[C@@H](CCCNC(=N)N)C(=O)N[C@H]1CCC(=O)NCCC[C@@H](C(N)=O)NC(=O)[C@H](Cc2c[nH]c3ccccc23)NC(=O)[C@H](CCCNC(=N)N)NC(=O)[C@@H](Cc2ccccc2)NC(=O)[C@H](Cc2c[nH]cn2)NC1=O [No. 4] (Ac-REH[dF]RW[Orn]-NH2; lactam 2-7)")
"true (1)"
>>> classification("CC(=O)N[C@@H](CCCNC(=N)N)C(=O)N[C@H]1CC(=O)NCCCC[C@@H](C(=O)O)NC(=O)[C@H](Cc2c[nH]c3ccccc23)NC(=O)[C@H](CCCNC(=N)N)NC(=O)[C@@H](Cc2ccccc2)NC(=O)[C@H](COCc2ccccc2)NC1=O [reference compound]")
"false (0)"
>>> classification("CCCC[C@H](NC(C)=O)C(=O)N[C@H]1CCCNC(=O)CC[C@@H](C(=O)O)NC(=O)[C@H](Cc2c[nH]c3ccccc23)NC(=O)[C@H](CCCNC(=N)N)NC(=O)[C@@H](Cc2ccccc2)NC(=O)[C@H](Cc2c[nH]cn2)NC1=O")
"false (0)"
>>> classification("CC(=O)N[C@@H](CCCNC(=N)N)C(=O)N[C@H]1CCC(=O)NCCC[C@@H](C(=O)O)NC(=O)[C@H](Cc2c[nH]c3ccccc23)NC(=O)[C@H](CCCNC(=N)N)NC(=O)[C@@H](Cc2ccccc2)NC(=O)[C@H](CCN)NC1=O")
"false (0)"

# next compound below
Determine whether measured pEC50 meets or exceeds 9 for "CC(=O)N[C@@H](CCCNC(=N)N)C(=O)N[C@H]1CCC(=O)NCCC[C@@H](C(=O)O)NC(=O)[C@H](Cc2c[nH]c3ccccc23)NC(=O)[C@H](CCCNC(=N)N)NC(=O)[C@@H](Cc2ccccc2)NC(=O)[C@H](CC(N)=O)NC1=O"
false (0)

* * *

- Target: human MC4-R (Homo sapiens, UniProt P32245)
- Construct: expressed in transfected cells; host or cells: HEK293 T-REx (tetracycline-regulated, Invitrogen); cell line from Palatin Technologies with license from the University of Michigan
- Assay Remarks: cAMP functional assay in HEK-293 T-REx cells expressing human MC4-R, induced with doxycycline 0.1 ng/mL (low density)
- Assay type: cell-based
- Reported Conditions: HEK293-T-REx; maximal cAMP stimulation, NDP-α-MSH = 100%; doxycycline 0.1 ng/mL; averages of all comparable assays; read-out: Emax
Bridge positions count the residues as written; N and C are the ends. Square brackets hold non-standard residues; d marks the D form. Peptide text beside a SMILES is read from it. Orn = NCCC[C@H](N)C(=O)O
Assign labels as follows, please: YES for Emax below 90%; NO for Emax equal to or exceeding 90%.

>>> classification("CC(=O)N[C@@H](CCCNC(=N)N)C(=O)N[C@H]1CC(=O)NCCCC[C@@H](C(=O)O)NC(=O)[C@H](Cc2c[nH]c3ccccc23)NC(=O)[C@H](CCCNC(=N)N)NC(=O)[C@@H](Cc2ccccc2)NC(=O)[C@H](CCC(N)=O)NC1=O [reference compound]")
"YES"
>>> classification("CC(=O)N[C@H]1CCC(=O)NCCC[C@@H](C(N)=O)NC(=O)[C@H](Cc2c[nH]c3ccccc23)NC(=O)[C@H](CCCNC(=N)N)NC(=O)[C@@H](Cc2ccccc2)NC(=O)[C@H](CCC(N)=O)NC1=O [No. 21, Ac-cyclo(Glu-Gln-D-Phe-Arg-Trp-Orn)-NH2] (Ac-EQ[dF]RW[Orn]-NH2; lactam 1-6)")
"YES"
>>> classification("CC(=O)N[C@@H](CCCNC(=N)N)C(=O)N[C@H]1CCCNC(=O)CC[C@@H](C(N)=O)NC(=O)[C@H](Cc2c[nH]c3ccccc23)NC(=O)[C@H](CCCNC(=N)N)NC(=O)[C@@H](Cc2ccccc2)NC(=O)[C@H](C)NC1=O [No. 41] (Ac-R[Orn]A[dF]RWE-NH2; lactam 2-7)")
"YES"
>>> classification("CC(=O)N[C@@H](CCCNC(=N)N)C(=O)N[C@H]1CCCNC(=O)CC[C@@H](C(N)=O)NC(=O)[C@H](Cc2c[nH]c3ccccc23)NC(=O)[C@H](CCCNC(=N)N)NC(=O)[C@@H](Cc2ccccc2)NC(=O)[C@H](CCN)NC1=O")
"NO"
>>> classification("CC(=O)N[C@@H](CCCCN)C(=O)N[C@H]1CCCNC(=O)CC[C@@H](C(N)=O)NC(=O)[C@H](Cc2c[nH]c3ccccc23)NC(=O)[C@H](CCCNC(=N)N)NC(=O)[C@@H](Cc2ccccc2)NC(=O)[C@H](Cc2c[nH]cn2)NC1=O [No. 40] (Ac-K[Orn]H[dF]RWE-NH2; lactam 2-7)")
"NO"
>>> classification("CC(=O)N[C@@H](CCCNC(=N)N)C(=O)N[C@H]1CCC(=O)NCCC[C@@H](C(N)=O)NC(=O)[C@H](Cc2c[nH]c3ccccc23)NC(=O)[C@H](CCCNC(=N)N)NC(=O)[C@@H](Cc2ccccc2)NC(=O)[C@H](CCCNC(N)=O)NC1=O")
"YES"
>>> classification("CC(=O)N[C@@H](CCCNC(=N)N)C(=O)N[C@H]1CC(=O)NCCCC[C@@H](C(N)=O)NC(=O)[C@H](Cc2c[nH]c3ccccc23)NC(=O)[C@H](CCCNC(=N)N)NC(=O)[C@@H](Cc2ccccc2)NC(=O)[C@H](CCCN)NC1=O [reference compound]")
"YES"

Let us examine a further case.
Lab log: compare recorded Emax with 90%; is it strictly lower for CC(=O)N[C@@H](CCCNC(=N)N)C(=O)N[C@H]1CC(=O)NCCCC[C@@H](C(=O)O)NC(=O)[C@H](Cc2c[nH]c3ccccc23)NC(=O)[C@H](CCCNC(=N)N)NC(=O)[C@@H](Cc2ccccc2)NC(=O)[C@H](CC(N)=O)NC1=O [reference compound] (Ac-RDN[dF]RWK-OH; lactam 2-7) ?
YES

* * *

- Target: human MC4-R (Homo sapiens, UniProt P32245)
- Construct: expressed in transfected cells; host or cells: HEK293 T-REx (tetracycline-regulated, Invitrogen); cell line from Palatin Technologies with license from the University of Michigan
- Assay Remarks: cAMP functional assay in HEK-293 T-REx cells expressing human MC4-R, induced with doxycycline 0.1 ng/mL (low density)
- Assay type: cell-based
- Reported Conditions: HEK293-T-REx; maximal cAMP stimulation, NDP-α-MSH = 100%; doxycycline 0.1 ng/mL; averages of all comparable assays; read-out: Emax
Bridge positions count the residues as written; N and C are the ends. Square brackets hold non-standard residues; d marks the D form. Peptide text beside a SMILES is read from it.
Overview of recorded Emax for various compounds
Only the number, expressed in %, is required.

Some solved entries appear below for comparison.
>>> recorded_result("CC(=O)N[C@@H](CCCNC(=N)N)C(=O)N[C@H]1CC(=O)NCCCC[C@@H](C(=O)NC2CC2)NC(=O)[C@H](Cc2c[nH]c3ccccc23)NC(=O)[C@H](CCCNC(=N)N)NC(=O)[C@@H](Cc2ccccc2)NC(=O)[C@H](CCC(N)=O)NC1=O [reference compound]")
79
>>> recorded_result("CC(=O)N[C@@H](CCCNC(=N)N)C(=O)N[C@H]1CC(=O)NCCCC[C@@H](C(N)=O)NC(=O)[C@H](Cc2c[nH]c3ccccc23)NC(=O)[C@H](CCCNC(=N)N)NC(=O)[C@@H](Cc2ccccc2)NC(=O)[C@H](C)NC1=O [reference compound] (Ac-RDA[dF]RWK-NH2; lactam 2-7)")
74
>>> recorded_result("CC(=O)N[C@H]1CC(=O)NCCCC[C@@H](C(N)=O)NC(=O)[C@H](Cc2c[nH]c3ccccc23)NC(=O)[C@H](CCCNC(=N)N)NC(=O)[C@@H](Cc2ccccc2)NC(=O)[C@H](CCC(N)=O)NC1=O [reference compound] (Ac-DQ[dF]RWK-NH2; lactam 1-6)")
35
>>> recorded_result("CC(=O)N[C@@H](CCCNC(=N)N)C(=O)N[C@H]1CC(=O)NCCCC[C@@H](C(=O)O)NC(=O)[C@H](Cc2c[nH]c3ccccc23)NC(=O)[C@H](CCCNC(=N)N)NC(=O)[C@@H](Cc2ccccc2)NC(=O)[C@H](CCCN)NC1=O [reference compound]")
84

Then this compound:
The recorded Emax for entry CC(=O)N[C@@H](CCCNC(=N)N)C(=O)N[C@H]1CC(=O)NCCCC[C@@H](C(N)=O)NC(=O)[C@H](Cc2c[nH]c3ccccc23)NC(=O)[C@H](CCCNC(=N)N)NC(=O)[C@@H](Cc2ccccc2)NC(=O)[C@H](CCC(N)=O)NC1=O [reference compound] equals 85
